- Tested on: 786-0 renal
- test-summary: NCI-60 one-dose screen, 48 h
- test-settings: 10 µM unless noted
This is part of a sample that, as a whole, favours compounds with a hit. Of some 83,000 tested, about 20% had one in any assay. Activity calls are given as the source filed them. The calls were made as follows: active = growth percent below 10; inactive = the rest.
Labels: active, inactive

[[record]]
molecule = "Cn1c(NCCc2ccc(O)c(O)c2)nc2c1c(=O)n(Cc1ccc(Cl)c(Cl)c1)c(=O)n2C"
classification = "inactive"

[[record]]
molecule = "CC/C=C\\C[C@H]1C/C=C2/C(=O)C=C[C@H]2C/C=C\\CCCC(=O)O1"
classification = "inactive"

[[record]]
molecule = "O=C(Nc1ccc(Cl)cc1)c1cc2cc(F)ccc2cc1O"
classification = "inactive"

[[record]]
molecule = "Cc1ccc(C(SCC(N)C(=O)O)(c2ccccc2)c2ccc(C)cc2)cc1 (centres undefined)"
classification = "inactive"

[[record]]
molecule = "CC[C@@H](C(=O)[C@@H](C)[C@@H](O)[C@H](C)[C@@H]1O[C@@H]([C@@H](CC)C(=O)O)CC[C@@H]1C)[C@H]1OC2(C=C[C@@H](O)[C@]3(CC[C@@](C)([C@H]4CC[C@](O)(CC)[C@H](C)O4)O3)O2)[C@H](C)C[C@@H]1C (some centres undefined)"
classification = "active"

[[record]]
molecule = "FC(F)(F)c1nc2c(NCc3ccc(-c4ccccc4)cc3)cccc2[nH]1"
classification = "inactive"

[[record]]
molecule = "O=C(CN1CCCCC1)Nc1ccc2oc(=O)ccc2c1"
classification = "inactive"

[[record]]
molecule = "COc1cc(/C=C/C(=O)c2cccnc2Nc2ccc(F)cc2)cc(OC)c1OC"
classification = "inactive"

[[record]]
molecule = "CN(Cc1cc(Cl)cc(Cl)c1O)Cc1cc(Cl)cc(Cl)c1O"
classification = "inactive"

[[record]]
molecule = "CN(C)C(=S)N=Nc1c(O)[nH]c2ccccc12"
classification = "active"

[[record]]
molecule = "CCn1c(Cc2ccccc2Nc2c(Cl)cccc2Cl)nnc1SCC(=O)NN1C(=O)/C(=C/c2cc(OC)c(O)c(OC)c2)SC1=S"
classification = "inactive"

[[record]]
molecule = "COc1ccc(C(=O)COc2ccc(/C=C3\\Oc4ccc(OC)cc4C3=O)cc2)cc1"
classification = "inactive"

[[record]]
molecule = "CN1CCN(Cc2ccc(NC(=O)c3cncc(C#Cc4cncn5ccnc45)c3)cc2C(F)(F)F)CC1"
classification = "inactive"

[[record]]
molecule = "COc1ccc(C(=O)c2sc3nc4c(c(-c5cccnc5)c3c2N)CCCC4)cc1OC"
classification = "inactive"

[[record]]
molecule = "CN1CCN=C1c1ccc(NC(=O)c2ccc(C(=O)Nc3ccc(C4=NCCN4C)cc3)cc2)cc1"
classification = "inactive"

[[record]]
molecule = "COc1cccc(-c2nc3sccn3c2-c2ccnc(NCCNS(=O)(=O)c3ccccc3)c2)c1"
classification = "inactive"

[[record]]
molecule = "N#Cc1nnn(-c2ccc(S(N)(=O)=O)cc2)c1NC(=O)CCl"
classification = "inactive"

[[record]]
molecule = "COc1cc(-c2nc3ccccc3[nH]2)ccc1OCc1nnc(-c2ccc(CC(C)C)cc2)o1"
classification = "inactive"

[[record]]
molecule = "Nc1ccc(-c2cc3c(Nc4ccc(Oc5cccc(C(F)(F)F)c5)c(Cl)c4)ncnc3s2)cc1"
classification = "inactive"

[[record]]
molecule = "CN(C)c1ccc(N=Nc2ccc(Br)cn2)c(O)c1"
classification = "inactive"

[[record]]
molecule = "O=C1C=C(OCC=C(Cl)Cl)C(=O)c2ccccc21"
classification = "inactive"

[[record]]
molecule = "COc1ccc(CCNc2nc(SC)nc(-c3cccc([N+](=O)[O-])c3)c2C#N)cc1OC"
classification = "inactive"

[[record]]
molecule = "O=C(NCCN1CCOCC1)Nc1ccc(-c2cc3c(Nc4ccc(Oc5cccc(C(F)(F)F)c5)c(Cl)c4)ncnc3s2)cc1"
classification = "active"

[[record]]
molecule = "O=S(=O)(Nc1ccc(I)cc1F)c1ccc(-c2cnc(C3CC3)o2)cc1"
classification = "inactive"

[[record]]
molecule = "CN(C)c1ccc(NC(=O)c2ccc(/C=C/C(=O)c3ncc[nH]3)cc2)cc1"
classification = "inactive"

[[record]]
molecule = "N#CN1CC[C@H](C(=O)Nc2cc3cc(C(N)=O)ccc3cn2)C1"
classification = "active"

[[record]]
molecule = "COc1ccc(-c2nc3ccc(-c4nc5ccc(N6CCN(C)CC6)cc5[nH]4)cc3[nH]2)cc1OC"
classification = "inactive"

[[record]]
molecule = "CC(=O)c1cc2c(N)c(C(=O)Nc3cccc4ccccc34)sc2nc1C"
classification = "inactive"

[[record]]
molecule = "C=CC(=O)Nc1cccc(-c2nc(SC)nc(NCCN3CCOCC3)c2C#N)c1"
classification = "inactive"

[[record]]
molecule = "O=C(COc1ccc(/C=C2\\CSc3ccccc3C2=O)cc1)Nc1nccs1"
classification = "inactive"

[[record]]
molecule = "CCCCC[C@H]1C/C=C2/C(=O)C=C[C@@H]2C/C=C\\CCCC(=O)O1"
classification = "active"

[[record]]
molecule = "C=CC(=O)Nc1cccc(-c2nc(SC)nc(Nc3cccc(OC)c3)c2C#N)c1"
classification = "inactive"

[[record]]
molecule = "CCCSc1ccc2nc(NC(=O)OC)[nH]c2c1"
classification = "inactive"

[[record]]
molecule = "COc1cccc(C2=NN3C(C2)c2cc(Br)cc(OC)c2OC32CCN(Cc3ccccc3)CC2)c1 (centres undefined)"
classification = "inactive"

[[record]]
molecule = "CCCCN(CCCC)CCCn1c(-c2ccccc2)ccc1-c1ccccc1"
classification = "inactive"

[[record]]
molecule = "O=c1cc(CSc2nnc(SCc3cc(=O)oc4c3ccc3ccccc34)o2)c2ccc3ccccc3c2o1"
classification = "inactive"

[[record]]
molecule = "COc1ccccc1NS(=O)(=O)c1ccc2oc(SC(C)C)nc2c1"
classification = "inactive"

[[record]]
molecule = "CCOc1nc(-c2ccccc2)cc2c(O)c(C(=O)O)[nH]c(=O)c12"
classification = "inactive"

[[record]]
molecule = "COc1ccc2c(c1)O/C(=C\\c1cccc(OCC(=O)Nc3nc4c(s3)CCCC4)c1)C2=O"
classification = "inactive"

